Data provenance: ChEMBL document CHEMBL1138729

target: Cyclin-dependent kinase 4 (Homo sapiens)
Sequence (P11802 whole entry): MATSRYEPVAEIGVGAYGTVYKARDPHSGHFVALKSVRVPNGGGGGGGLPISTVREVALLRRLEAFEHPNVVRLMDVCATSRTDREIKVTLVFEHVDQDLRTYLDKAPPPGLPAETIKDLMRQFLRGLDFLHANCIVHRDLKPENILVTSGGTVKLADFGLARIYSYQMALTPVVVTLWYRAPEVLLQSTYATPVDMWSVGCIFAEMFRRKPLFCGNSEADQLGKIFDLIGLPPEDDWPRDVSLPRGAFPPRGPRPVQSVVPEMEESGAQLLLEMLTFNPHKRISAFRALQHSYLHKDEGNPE
pIC50: −log10 of the molar value.
assay metric: pIC50

[
  {
    "chemical structure": "Nc1nc2ccc(C(=O)c3c(F)cccc3F)cn2c1C(=S)c1ccccc1",
    "pIC50": 5.72
  },
  {
    "chemical structure": "Nc1nc2ccc(C(=O)c3c(F)cccc3F)cn2c1C(=O)c1c(F)cccc1Cl",
    "pIC50": 6.08
  },
  {
    "chemical structure": "Nc1nc2ccc(/C(=C/c3nn[nH]n3)c3c(F)cccc3F)cn2c1C(=O)c1c(F)cccc1F",
    "pIC50": 5.77
  }
]

I: C=C(c1ccc2nc(N)c(C(=O)c3c(F)cccc3F)n2c1)c1c(F)cccc1F
II: Nc1nc2ccc(C(=O)c3c(F)cccc3F)cn2c1C(=O)c1c(Cl)cccc1Cl
Record comparison, field pIC50: mark the lower of I and II . Your answer should be the label of the entry you select.
I

---

target: UniProtKB P24941
assay metric: IC50 (µM)

Answered examples (8):
[
  {
    "chemical structure": "NC(=O)c1cc(F)c(C(=O)c2c(N)nc3ccc(C(=O)c4c(Cl)cccc4Cl)cn23)c(F)c1",
    "IC50 [µM]": 0.046
  },
  {
    "chemical structure": "Nc1nc2ccc(C(=O)c3c(F)cccc3F)cn2c1C(=O)c1c(F)cccc1Cl",
    "IC50 [µM]": 0.102
  },
  {
    "chemical structure": "CN(C)CCOc1cc(F)c(C(=O)c2c(N)nc3ccc(C(=O)c4c(Cl)cccc4Cl)cn23)c(F)c1",
    "IC50 [µM]": 0.984
  },
  {
    "chemical structure": "C=C(c1ccc2nc(N)c(C(=O)c3c(F)cccc3F)n2c1)c1c(F)cccc1F",
    "IC50 [µM]": 0.063
  },
  {
    "chemical structure": "Nc1nc2ccc(/C(=C/c3nn[nH]n3)c3c(F)cccc3F)cn2c1C(=O)c1c(F)cccc1F",
    "IC50 [µM]": 1.69
  },
  {
    "chemical structure": "COc1ccccc1C(=O)c1c(N)nc2ccc(C(=O)c3c(F)cccc3F)cn12",
    "IC50 [µM]": 0.068
  },
  {
    "chemical structure": "Nc1nc2ccc(C(=O)c3ccccc3OC(F)(F)F)cn2c1C(=O)c1c(F)cccc1F",
    "IC50 [µM]": 2.17
  },
  {
    "chemical structure": "CN1CCN(CCOc2cc(F)c(C(=O)c3c(N)nc4ccc(C(=O)c5c(Cl)cccc5Cl)cn34)c(F)c2)CC1",
    "IC50 [µM]": 0.812
  }
]

a: Cc1ccccc1C(=O)c1ccc2nc(N)c(C(=O)c3c(F)cccc3F)n2c1
b: Nc1nc2ccc(C(=O)c3c(F)cccc3F)cn2c1C(=O)c1ccncc1
Returns: the argument ( a or b ) having the larger IC50. Indicate which entry you chose by stating its label.
b

---

assay: Inhibitory activity against Cyclin-dependent kinase 1 (CDK1)
pIC50: −log10 of the molar value.
assay metric: pIC50

[
  {
    "chemical structure": "Nc1nc2ccc(/C(=C/c3nn[nH]n3)c3c(F)cccc3F)cn2c1C(=O)c1c(F)cccc1F",
    "endpoint value": 7.02
  },
  {
    "chemical structure": "C=C(c1ccc2nc(N)c(C(=O)c3c(F)cccc3F)n2c1)c1c(F)cccc1F",
    "endpoint value": 7.03
  },
  {
    "chemical structure": "NC(=O)c1cc(F)c(C(=O)c2c(N)nc3ccc(C(=O)c4c(Cl)cccc4Cl)cn23)c(F)c1",
    "endpoint value": 6.81
  },
  {
    "chemical structure": "COc1cc(F)c(C(=S)c2c(N)nc3ccc(C(=O)c4c(F)cccc4F)cn23)c(F)c1",
    "endpoint value": 6.84
  }
]
